Test system: Salmonella typhimurium
EXPERIMENTAL_DETAILS: Antibacterial activity against Salmonella enterica subspecies enterica serotype typhimurium ATCC 14028 after 18 hrs
Assay type: functional, Salmonella enterica subsp. enterica serovar Typhimurium
CONDITIONS: ATCC 14028, 18 h
ASSAY_METRIC: MIC

Here are 7 molecules together with their reported answers.
INSERT INTO assay_data (molecule, assay_metric, reported_measurement) VALUES
  ('Oc1cc(Cl)ccc1Oc1ccc(Cl)cc1Cl [TRICLOSAN]', 'MIC', '0.5 to 1 µg/mL'),
  ('OC[C@H]1O[C@@H](Oc2cc(Cl)ccc2Oc2ccc(Cl)cc2Cl)[C@H](O)[C@@H](O)[C@H]1O', 'MIC', '2 to 16 µg/mL'),
  ('OC[C@H]1O[C@H](Oc2cc(Cl)ccc2Oc2ccc(Cl)cc2Cl)[C@H](O)[C@@H](O)[C@H]1O', 'MIC', '32 to 64 µg/mL'),
  ('OC[C@H]1O[C@@H](Oc2cc(Cl)ccc2Oc2ccc(Cl)cc2Cl)[C@H](O)[C@@H](O)[C@@H]1O', 'MIC', '16 to 32 µg/mL'),
  ('O[C@@H]1[C@@H](Oc2cc(Cl)ccc2Oc2ccc(Cl)cc2Cl)OC[C@@H](O)[C@H]1O', 'MIC', '2 to 8 µg/mL'),
  ('OC[C@H]1O[C@H](Oc2cc(Cl)ccc2Oc2ccc(Cl)cc2Cl)[C@H](O)[C@@H](O)[C@@H]1O', 'MIC', '2 to 8 µg/mL'),
  ('O[C@@H]1[C@H](Oc2cc(Cl)ccc2Oc2ccc(Cl)cc2Cl)OC[C@@H](O)[C@H]1O', 'MIC', '32 to 64 µg/mL');

Turning to the following molecule.
stdin: Quick check: MIC of OC[C@H]1O[C@H](Oc2cc(Cl)ccc2Oc2ccc(Cl)cc2Cl)[C@@H](O)[C@@H](O)[C@@H]1O ?
stdout: 16 to 64 µg/mL
